# Target System: T1, Human Glypican3-Fc (ACRO Biosystems, GP3-H5258) (human, UniProt P51654 25-559)
# T1 construct: Bought fusion protein, captured in Methods B-2, B-3 and B-4; Catalogue number is printed only in Method B-2; not shown: Fc part of the bought fusion
# Protocol Summary: SPR (Biacore T200), Method B-2: human Glypican3-Fc captured by anti-human Fc on CM3 chip, peptide as analyte
Starred links: 1 amine or outer side, 2 acyl side, 3 side chain; linkers in the order of their positions; H or OH if unused. Positions of bridges follow the written chain, without caps; N, C: chain ends. Non-standard residues stand in square brackets, D forms with d. Groups on a side chain read outwards from the residue. Primed or numbered codes have the meaning given here. *: point of attachment. F4aao(3) = 4-(carboxymethoxy)-L-phenylalanine ((S)-2-amino-3-(4-(carboxymethoxy)phenyl)propanoic acid), O=C([C@H](Cc1ccc(OCC(=O)[*:3])cc1)N[*:1])[*:2]; DOTA‑Lu = DOTA-lutetium(175) amide on the side-chain amine, O=C([O-])CN1CCN(CC(=O)[O-])CCN(CC(=O)*)CCN(CC(=O)[O-])CC1.[175Lu+3]; F4aao = 4-(carboxymethoxy)-L-phenylalanine, O=C([C@H](Cc1ccc(OCC(=O)[*:3])cc1)N[*:1])[*:2]; DOTA‑Lu″ = DOTA chelate of lutetium (175Lu), attached as an amide to the side-chain amine; MeHseMe(6) = (2S)-4-methoxy-2-(methylamino)butanoic acid, COCC[C@@H](C(=O)[*:2])N(C)[*:1]; Phe(4-(1-Me-pyrazol-4-yl)) = Cn1cc(-c2ccc(C[C@H](N)C(=O)O)cc2)cn1; DOTA‑Lu(3) = DOTA chelate with cold lutetium-175, amide-linked; TMe = O-methyl-L-threonine, CO[C@H](C)[C@H](N[*:1])C(=O)[*:2]; NMeAla(isoquinolin-7-yl) = CN[C@@H](Cc1ccc2ccncc2c1)C(=O)O; Phe(4-CH2COOH) = N[C@@H](Cc1ccc(CC(=O)O)cc1)C(=O)O; 3Pal(6-Ph) = N[C@@H](Cc1ccc(-c2ccccc2)nc1)C(=O)O; Phe(4-COOH) = N[C@@H](Cc1ccc(C(=O)O)cc1)C(=O)O; NMe2Nal = CN[C@@H](Cc1ccc2ccccc2c1)C(=O)O; NMeI = CC[C@H](C)[C@H](NC)C(=O)O; NMeQ = CN[C@@H](CCC(N)=O)C(=O)O; NMeK = CN[C@@H](CCCCN)C(=O)O; NMeC = CN[C@@H](CS)C(=O)O; NMeA = CN[C@@H](C)C(=O)O
Criterion: Kd strictly less than 2 nM. Met: yes (1). Not met: no (0).

Determine whether this binder shows Kd lower than 2 nM (ties excluded): {CH2CO}-[NMeK]([dE-DOTA‑Lu(3)])[NMeI]D[NMeQ][Phe(4-COOH)]II[F4aao(3)][NMeAla(isoquinolin-7-yl)]G[3Pal(6-Ph)][NMeC]-NH2 (thioether N-12) [Lu-C-33] yes (1)

Determine whether this binder shows Kd lower than 2 nM (ties excluded): Ac-[NMeK](DOTA‑Lu(3))[MeHseMe(6)]D[NMeQ][Phe(4-COOH)][TMe]IY[NMeAla(isoquinolin-7-yl)]G[3Pal(6-Ph)][NMeC]-NH2 (bridge N-12; not fully specified (bridges); also: cold Lu-175 chelated by DOTA) [Lu-C-45] yes (1)

Determine whether this binder shows Kd lower than 2 nM (ties excluded): {CH2CO}-[NMeQ][NMeQ]D[NMeK](DOTA‑Lu″)[Phe(4-COOH)]II[Phe(4-CH2COOH)][NMe2Nal]G[Phe(4-(1-Me-pyrazol-4-yl))][NMeC]-NH2 (thioether N-12) [Lu-C-26] no (0)

Determine whether this binder shows Kd lower than 2 nM (ties excluded): {CH2CO}-[NMeA][NMeQ]D[NMeQ][Phe(4-COOH)]II[Phe(4-COOH)][NMe2Nal]G[3Pal(6-Ph)][NMeC]-NH2 (thioether N-12; SMILES CC[C@H](C)[C@@H]1NC(=O)[C@H](Cc2ccc(C(=O)O)cc2)NC(=O)[C@H](CCC(N)=O)N(C)C(=O)[C@H](CC(=O)O)NC(=O)[C@H](CCC(N)=O)N(C)C(=O)[C@H](C)N(C)C(=O)CSC[C@@H](C(N)=O)N(C)C(=O)[C@H](Cc2ccc(-c3ccccc3)nc2)NC(=O)CNC(=O)[C@H](Cc2ccc3ccccc3c2)N(C)C(=O)[C@H](Cc2ccc(C(=O)O)cc2)NC(=O)[C@H]([C@@H](C)CC)NC1=O) [Macrocyclic peptide of Example 2-23 (SEQ ID No. 43)] yes (1)

Determine whether this binder shows Kd lower than 2 nM (ties excluded): Ac-[NMeK](DOTA‑Lu)[NMeI]D[NMeQ][Phe(4-COOH)][TMe]I[F4aao][NMeAla(isoquinolin-7-yl)]G[3Pal(6-Ph)][NMeC][dE]-NH2 (bridge N-12; not fully specified (bridges); printed as MeK(DOTA-Lu)-MeI-D-MeQ-F4COO-TMe-I-F4aao-MeNal27N-G-3Py6Ph-MeC-de-NH2) [Lu-C-31] no (0)

Determine whether this binder shows Kd lower than 2 nM (ties excluded): {CH2CO}-K[NMeI]D[NMeQ][Phe(4-COOH)]II[F4aao][NMeAla(isoquinolin-7-yl)]G[3Pal(6-Ph)][NMeC]-NH2 (thioether N-12; not fully specified (residue 1); also: DOTA-Lu: cold Lu-175 complex) [Lu-C-42] yes (1)
